# Test system: Enterococcus faecium
# protocol-notes: Antibacterial activity against glycopeptide susceptible Enterococcus faecium 568 strain
# Format: functional
This listing pairs compounds with measured MIC.
Just the number in µg/mL, nothing appended.

Before answering, review these 5 worked examples.
>>> value_reported("CCCCCCCCCCNC(=O)[C@H]1NC(=O)[C@H]2NC(=O)[C@H](NC(=O)[C@@H]3NC(=O)[C@H](CC(N)=O)NC(=O)[C@H](NC(=O)[C@@H](CC(C)C)NC)[C@H](O)c4ccc(c(Cl)c4)Oc4cc3cc(c4O[C@@H]3O[C@H](CO)[C@@H](O)[C@H](O)[C@H]3O[C@H]3C[C@](C)(N)C(O)[C@H](C)O3)Oc3ccc(cc3Cl)[C@H]2O)c2ccc(O)c(c2)-c2c(O)cc(O)cc21 (stereo partly specified)")
0.5
>>> value_reported("CCCCCCCCCCNC(=O)[C@H]1NC(=O)[C@H]2NC(=O)[C@H](NC(=O)[C@@H]3NC(=O)[C@H](CC(N)=O)NC(=O)[C@H](N)[C@H](O)c4ccc(c(Cl)c4)Oc4cc3cc(c4O)Oc3ccc(cc3)[C@H]2O)c2ccc(O)c(c2)-c2c(O)cc(O)cc21")
64
>>> value_reported("CN[C@H](CC(C)C)C(=O)N[C@H]1C(=O)N[C@@H](CC(N)=O)C(=O)N[C@H]2C(=O)N[C@H]3C(=O)N[C@H](C(=O)N[C@H](C(=O)O)c4cc(O)cc(O)c4-c4cc3ccc4O)[C@H](O)c3ccc(cc3)Oc3cc2cc(c3O)Oc2ccc(cc2Cl)[C@H]1O [EREMOMYCIN AGLYCON]")
32
>>> value_reported("CN[C@H](CC(C)C)C(=O)N[C@H]1C(=O)N[C@@H](CC(N)=O)C(=O)N[C@H]2C(=O)N[C@H]3C(=O)N[C@H](C(=O)N[C@H](C(=O)NCc4ccc(-c5ccc(Cl)cc5)cc4)c4cc(O)cc(O)c4-c4cc3ccc4O)[C@H](O[C@H]3C[C@](C)(N)[C@@H](O)[C@H](C)O3)c3ccc(cc3)Oc3cc2cc(c3O[C@@H]2O[C@H](CO)[C@@H](O)[C@H](O)[C@H]2O[C@H]2C[C@](C)(N)[C@@H](O)[C@H](C)O2)Oc2ccc(cc2Cl)[C@H]1O")
1
>>> value_reported("C[C@@H]1O[C@@H](O[C@H]2[C@H](Oc3c4cc5cc3Oc3ccc(cc3Cl)[C@@H](O)[C@@H](N)C(=O)N[C@@H](CC(N)=O)C(=O)N[C@H]5C(=O)N[C@H]3C(=O)N[C@H](C(=O)N[C@H](C(=O)O)c5cc(O)cc(O)c5-c5cc3ccc5O)[C@H](O[C@H]3C[C@](C)(N)[C@@H](O)[C@H](C)O3)c3ccc(cc3)O4)O[C@H](CO)[C@@H](O)[C@@H]2O)C[C@](C)(N)[C@H]1O")
16

Turning to the following compound.
Inquiry: // returns reported MIC for input C[C@@H]1O[C@@H](O[C@H]2[C@H](Oc3c4cc5cc3Oc3ccc(cc3Cl)[C@@H](O)[C@@H](N)C(=O)N[C@@H](CC(N)=O)C(=O)N[C@H]5C(=O)N[C@H]3C(=O)N[C@H](C(=O)N[C@H](C(=O)NCc5ccc(-c6ccc(Cl)cc6)cc5)c5cc(O)cc(O)c5-c5cc3ccc5O)[C@H](O[C@H]3C[C@](C)(N)[C@@H](O)[C@H](C)O3)c3ccc(cc3)O4)O[C@H](CO)[C@@H](O)[C@@H]2O)C[C@](C)(N)[C@H]1O
Reply text: 4
